Quick reference: relative integration efficiency (log2) of the listed items.
Tested on: VchCAST RNA-guided transposition machinery (E. coli BL21(DE3) host, lacZ target)
Assay overview: relative integration efficiency (T-LR orientation) vs wild-type transposon end (log2 (normalized fold change)); transposon end mutated: right end (5 bp flank + 75 bp right end); higher = more efficient transposition
Could you respond with only the numeric value?

# Sequence input, relative integration efficiency (log2)
rows = [
    ("ACATTTGTTGATACAACCATAAGTTGATATTTTCAACCATATATTGATATCTCTCAGTGGGTATTTAACTATAACGCTCTGATCATAGTCAGACCAACATTGCTACGACCCGTATTCGCACCGACAC", 2.4),
    ("ACATTTGTTCATCCAACCATAAAATGATAATTACACCCATAAATTGATAATTATCACACCCAATTTAACTATAACGCTCTGATCATAGTCAGACCAACATTGCTACGACCCGTATTCGCACCGACAC", 0.451),
]

Let us move to another entry and its relative integration efficiency (log2).
Prompt: I have this sequence here, ACATTTGTTGATACAACCATAAAATGATAATTACACCCATAAATTGATAATTAGAACACCCATAAATTGATATTGCCTCTGATCATAGTCAGACCAACATTGCTACGACCCGTATTCGCACCGACAC , and I need its recorded relative integration efficiency (log2).
Completion: -0.0187

These entries and their values trace back to the supplement of paper PMC10201428.
